test: folding stability dG unfold from trypsin proteolysis; higher = more stable
Each record's folding stability dG unfold is compared with bottom bin (below 0.6 kcal/mol), middle bin (0.6 kcal/mol to below 2 kcal/mol), top bin (2 kcal/mol or more) to give its class.

// query State the class of the sequence shown: SAMMYLIRVTITVKNKETGEEKEIEVEILIEKEEGELTEEEIEELARKLAEELGLEVEEIKIEIEPLPESAG [r14_278_TrROS_Hall]
// result top bin

// query # bin label for SANVRRREIRIPAKDMPPNQIRDALRDLGFPPSKIENLDIERHKGNMITVKIYWTFENGQKQKIELHIPSAG [r14_30_TrROS]
// result bottom bin
